Record form. Attribute: inhibition. Fill in for each entry.
Biological target: 5-hydroxytryptamine receptor 5A (Homo sapiens)
Experiment: Displacement of [3H]LSD from human recombinant 5-HT5A receptor expressed in HEK293 cells at 1 uM after 120 mins by scintillation counting analysis relative to control
Assay type: cell-based
One number for each entry, in %.

# smiles, value reported
rows = [
    ("Oc1ccc2[nH]cc(CCN3CCN(c4ccccc4)CC3)c2c1", 56),
    ("Oc1ccc2[nH]cc(CCN3CCN(c4cccc5ccccc45)CC3)c2c1", 94),
    ("CN(CCCN1CCN(c2ccccc2)CC1)c1cccc(O)c1", 49),
]

Exercise: Recall and state the measured inhibition for CN(C(=O)CCCCCN1CCN(c2cccc3ccccc23)CC1)c1cccc(O)c1 .
Solution: 70

###

Can you tell me inhibition for the items I'm about to list?
Molecular target: 5-hydroxytryptamine receptor 1A (Homo sapiens)
Test: Displacement of [3H]-8-OH-DPAT from human recombinant 5-HT1A receptor expressed in HEK293 cells at 1 uM by scintillation counting analysis relative to control
Type: cell-based
State the value, then name its unit.

Recorded results for 3 compounds are shown here.
# smiles, inhibition
rows = [
    ("Oc1ccc2[nH]cc(CCN3CCN(c4cccc5ccccc45)CC3)c2c1", "100%"),
    ("Oc1ccc2[nH]cc(CCN3CCN(c4ccccc4)CC3)c2c1", "95%"),
    ("CN(CCCN1CCN(c2ccccc2)CC1)c1cccc(O)c1", "101%"),
]

Exercise: Please indicate inhibition recorded for CN(C(=O)CCCCCN1CCN(c2cccc3ccccc23)CC1)c1cccc(O)c1
Solution: 99%

###

Target: 5-hydroxytryptamine receptor 1B (Homo sapiens) (UniProt P28222)
Sequence (P28222 whole entry): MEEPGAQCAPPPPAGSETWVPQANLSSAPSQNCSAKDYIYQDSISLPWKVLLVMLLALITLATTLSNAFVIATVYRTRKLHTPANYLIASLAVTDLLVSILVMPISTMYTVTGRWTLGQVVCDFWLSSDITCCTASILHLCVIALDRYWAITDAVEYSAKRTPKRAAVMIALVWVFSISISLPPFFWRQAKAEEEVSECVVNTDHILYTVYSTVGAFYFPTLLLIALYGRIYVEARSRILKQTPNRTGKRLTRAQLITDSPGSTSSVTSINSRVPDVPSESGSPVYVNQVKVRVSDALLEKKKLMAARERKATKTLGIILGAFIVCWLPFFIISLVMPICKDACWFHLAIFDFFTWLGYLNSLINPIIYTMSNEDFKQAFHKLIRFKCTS
Test: Binding affinity to recombinant human 5-HT1B receptor expressed in CHO cells at 1 uM by radioligand displacement assay relative to control
Format: cell-based
value type: inhibition (%)
One number for each entry, in %.

Sample answers from the record:
# smiles, inhibition / %
measured = [
    ("Oc1ccc2[nH]cc(CCN3CCN(c4ccccc4)CC3)c2c1", 11),
    ("Oc1ccc2[nH]cc(CCN3CCN(c4cccc5ccccc45)CC3)c2c1", 74),
    ("CN(CCCN1CCN(c2ccccc2)CC1)c1cccc(O)c1", 9),
]

Exercise: Give the measured inhibition for CN(C(=O)CCCCCN1CCN(c2cccc3ccccc23)CC1)c1cccc(O)c1
Solution: 69

###

Target: 5-hydroxytryptamine receptor 6 (Homo sapiens) (UniProt P50406)
Sequence (P50406 whole entry): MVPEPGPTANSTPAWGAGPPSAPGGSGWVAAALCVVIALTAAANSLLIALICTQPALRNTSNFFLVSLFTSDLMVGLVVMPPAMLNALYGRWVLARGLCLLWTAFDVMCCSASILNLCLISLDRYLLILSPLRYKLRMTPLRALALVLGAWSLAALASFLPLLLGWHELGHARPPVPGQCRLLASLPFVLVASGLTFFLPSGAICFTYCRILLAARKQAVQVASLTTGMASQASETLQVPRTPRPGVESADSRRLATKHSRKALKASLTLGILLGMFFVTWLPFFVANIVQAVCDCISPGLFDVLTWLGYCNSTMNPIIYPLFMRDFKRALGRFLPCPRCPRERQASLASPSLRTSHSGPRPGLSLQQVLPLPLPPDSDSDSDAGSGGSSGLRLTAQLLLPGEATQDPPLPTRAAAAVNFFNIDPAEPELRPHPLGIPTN
Experiment: Binding affinity to human recombinant 5-HT6 receptor expressed in CHO cells at 1 uM after 30 mins by radioligand displacement assay relative to control
Format: cell-based
Would you kindly list inhibition for each of these compounds?
Give bare numbers, in %.

Please report inhibition for every entry that follows.
1. CN(CCCN1CCN(c2ccccc2)CC1)c1cccc(O)c1
2. Oc1ccc2[nH]cc(CCN3CCN(c4ccccc4)CC3)c2c1
3. Oc1ccc2[nH]cc(CCN3CCN(c4cccc5ccccc45)CC3)c2c1
4. CN(C(=O)CCCCCN1CCN(c2cccc3ccccc23)CC1)c1cccc(O)c1

Solution:
1: 21; 2: 18; 3: 76; 4: 71

###

Target: 5-hydroxytryptamine receptor 7 (Homo sapiens)
Sequence (P34969 whole entry): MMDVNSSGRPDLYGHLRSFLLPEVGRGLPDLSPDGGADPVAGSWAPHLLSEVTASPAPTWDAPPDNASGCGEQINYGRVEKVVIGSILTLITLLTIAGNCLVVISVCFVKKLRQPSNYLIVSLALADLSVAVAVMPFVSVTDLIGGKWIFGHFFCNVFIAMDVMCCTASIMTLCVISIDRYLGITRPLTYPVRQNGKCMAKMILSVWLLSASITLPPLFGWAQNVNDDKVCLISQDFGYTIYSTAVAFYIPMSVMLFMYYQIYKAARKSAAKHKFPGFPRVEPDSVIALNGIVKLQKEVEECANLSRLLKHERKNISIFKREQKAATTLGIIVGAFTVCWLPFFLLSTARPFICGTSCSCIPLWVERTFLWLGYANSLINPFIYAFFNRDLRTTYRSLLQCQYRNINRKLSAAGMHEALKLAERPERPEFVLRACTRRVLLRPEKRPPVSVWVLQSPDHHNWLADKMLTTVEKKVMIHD
Test: Displacement of [3H]5-HT from human 5-HT7 receptor expressed in HEK293 cells at 10^-5 mol/L after 30 mins by microbeta counting analysis
Assay type: cell-based
value type: inhibition (%)
Answers are plain numbers, in %.

Give me inhibition for each of these molecules, listed below.
1. Oc1ccc2[nH]cc(CCN3CCN(c4cccc(-c5ccccc5)c4)CC3)c2c1
2. Oc1cccc(OCCN2CCN(c3ccccc3)CC2)c1
3. CN(CCN1CCN(c2ccccc2)CC1)c1cccc(N)c1
4. CN(CCCCCCN1CCN(c2ccnc3cc(Cl)ccc23)CC1)c1cccc(O)c1
5. Oc1ccc2[nH]cc(CCN3CCN(c4ccc(-c5ccccc5)cc4)CC3)c2c1
6. CN(CCN1CCN(Cc2ccccc2)CC1)c1cccc(O)c1

Solution:
1: 88; 2: 42; 3: 85; 4: 74; 5: 32; 6: 82
